IC50 overview
Molecular target: human IBAT (Homo sapiens, UniProt Q12908)
Construct: kept under Puromycin selection
Sequence (Q12908 whole entry): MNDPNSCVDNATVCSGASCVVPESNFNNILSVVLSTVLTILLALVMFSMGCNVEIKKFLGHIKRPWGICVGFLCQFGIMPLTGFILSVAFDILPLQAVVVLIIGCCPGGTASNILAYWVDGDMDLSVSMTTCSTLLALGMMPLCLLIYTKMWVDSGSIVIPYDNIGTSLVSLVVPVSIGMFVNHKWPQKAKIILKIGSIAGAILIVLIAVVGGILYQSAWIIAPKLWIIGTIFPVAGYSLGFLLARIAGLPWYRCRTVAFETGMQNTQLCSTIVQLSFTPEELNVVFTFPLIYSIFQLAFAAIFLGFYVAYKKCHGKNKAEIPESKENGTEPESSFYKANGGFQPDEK
Test: IBAT (h/m) assay: 3H-taurocholic acid uptake in human IBAT-overexpressing cells
Conditions: 0.25 μM 3H-taurocholic acid and 5 μM cold taurocholic acid, 20 minutes, highest test concentration 10 μM, read-out: hIBAT IC50
measurement-type: IC50

INSERT INTO assay_data (compound, measurement) VALUES
  ('CCCCC1CN(c2ccccc2)c2cc(SCC)c(O/C=C/C(=O)O)cc2S(=O)(=O)N1 (single isomer, unassigned) [Example 6]', '> 10 µM'),
  ('CCCCC1CN(c2ccccc2)c2cc(SCC)c(O/C=C(\F)C(=O)O)cc2S(=O)(=O)C1 (single isomer, unassigned) [Example 14]', '> 10 µM'),
  ('CCCCC1CN(c2ccc(F)cc2)c2cc(SCC)c(O/C=C/C(=O)O)cc2S(=O)(=O)C1 (single isomer, unassigned) [Example 8]', '> 10 µM'),
  ('CCCCC1CN(c2ccc(F)cc2)c2cc(SCC)c(O/C=C(\F)C(=O)O)cc2S(=O)(=O)C1 (single isomer, unassigned) [Example 17]', '> 3.33 µM'),
  ('CCCCC1CN(c2ccc(F)cc2)c2cc(SC)c(O/C=C/C(=O)O)cc2S(=O)(=O)N1 (single isomer, unassigned) [Example 2]', '> 10 µM'),
  ('CCCCC1CN(c2ccc(F)cc2)c2cc(SCC)c(O/C=C(\F)C(=O)O)cc2S(=O)(=O)N1C (single isomer, unassigned)', '> 3.33 µM');

FYI, the data here is from patent US11572350B1.
